# credit: patent US6071884A

tested on: marrow cells (mononuclear cell fraction); experiment: Proliferation-stimulating effect on marrow cell of mouse (3H-TdR uptake); assay type: cell-based, mouse (BALB/c); conditions: 10^-3 μg/ml, percentage of control, 72 h
Below, each of the compounds is paired with its reported activity at 0.001 µg/mL value.
Kindly answer with a numeric value in %, unit omitted.

See these solved cases before continuing.
>  <Compound>
CCCCCCCCCCCCCCCCCCCCCC[C@@H](O)C(=O)N[C@@H](CO[C@H]1O[C@H](CO)[C@H](O)[C@H](O)[C@H]1O)[C@H](O)CCCCCCCCCCCCCCC [Compound 14]

>  <activity at 0.001 µg/mL / %>
134

$$$$
>  <Compound>
CCCCCCCCCCCCCCCCCCCCCCCC(=O)N[C@@H](CO[C@H]1O[C@H](CO)[C@H](O)[C@H](O)[C@H]1O)[C@H](O)[C@H](O)CCCCCCCCCCCCCC [Compound 16]

>  <activity at 0.001 µg/mL / %>
115

$$$$

Give activity at 0.001 µg/mL for this entry on marrow cells (mononuclear cell fraction): CCCCCCCCCCCCCCCCCCCCCCCC[C@@H](O)C(=O)N[C@@H](CO[C@H]1O[C@H](CO)[C@H](O)[C@H](O)[C@H]1O)[C@H](O)[C@H](O)CCCCCCCCCCCCCC [Compound 25]
153

* * *

assay: Life-span-increasing effect on irradiation of a lethal dose of radiation; format: in vivo, mouse (BDF1); details: day 20; 10 mice/group; 9 Gy X-ray; 0.1 mg/kg i.v. days 0, 4, 8; controls per series 4, 5, 1, 2, 3, 0
Below: a set of entries, each annotated with reported Number of Surviving Mice.
Answer with a number only, understood to be in mice.

>  <Compound>
CCCCCCCCCCCCCCCCCCCC(=O)N[C@@H](CO[C@H]1O[C@H](CO)[C@H](O)[C@H](O)[C@H]1O)[C@H](O)CCCCCCCCCCCCCCC [Compound 3]

>  <Measurement units>
mice

>  <Reported result>
8

$$$$

--- query ---
Return Number of Surviving Mice for the following compound: CCCCCCCCCCCCCC(=O)N[C@@H](CO[C@H]1O[C@H](CO)[C@H](O)[C@H](O)[C@H]1O)[C@H](O)CCCCCCCCCCCCC [Compound 10]
7

* * *

experiment: Life-span-increasing effect on irradiation of a lethal dose of radiation; type: in vivo, mouse (BDF1); settings: day 15; 10 mice/group; 9 Gy X-ray; 0.1 mg/kg i.v. days 0, 4, 8; controls per series 8, 9, 5, 5, 7, 1
Metric name: Number of Surviving Mice (mice)
A number alone suffices; assume mice.

The examples below pair each entry with its known result.
>  <Compound structure string>
CCCCCCCCCCCCCCCCCCCCCC[C@@H](O)C(=O)N[C@@H](CO[C@H]1O[C@H](CO)[C@H](O)[C@H](O)[C@H]1O)[C@H](O)[C@H](O)CCCCCCC

>  <Metric name>
Number of Surviving Mice

>  <Measurement units>
mice

>  <Reported result>
9

$$$$
>  <Compound structure string>
CCCCCCCCCCCCCCC[C@@H](O)[C@H](CO[C@H]1O[C@H](CO)[C@H](O)[C@H](O)[C@H]1O)NC(=O)CCCCCCCCCCCCC

>  <Metric name>
Number of Surviving Mice

>  <Measurement units>
mice

>  <Reported result>
9

$$$$

With those in mind, consider the next molecule.
Item "CCCCCCCCCCCCCCCCCCCCCCCC[C@@H](O)C(=O)N[C@@H](CO[C@H]1O[C@H](CO)[C@H](O)[C@H](O)[C@H]1O)[C@H](O)[C@H](O)CCCCCCCCCCCCCC" : provide Number of Surviving Mice
10

* * *

assay: Life-span-increasing effect on irradiation of a lethal dose of radiation; format: in vivo, mouse (BDF1); conditions: day 30; 10 mice/group; 9 Gy X-ray; 0.1 mg/kg i.v. days 0, 4, 8; controls per series 1, 1, 0, 0, 0, 0
Kindly apply the following: class 1 if Number of Surviving Mice is less than 7 mice, class 0 in every other case.

A selection of reference data follows.
>  <Compound structure string>
CCCCCCCC/C=C\CCCCCCCC(=O)N[C@@H](CO[C@H]1O[C@H](CO)[C@H](O)[C@H](O)[C@H]1O)[C@H](O)CCCCCCCCCCCCCCC

>  <Class>
class 0

$$$$
>  <Compound structure string>
CCCCCCCCCCCCCCC[C@@H](O)[C@H](CO[C@H]1O[C@H](CO)[C@H](O)[C@H](O)[C@H]1O)NC(=O)CCCCCCCCC

>  <Class>
class 1

$$$$
>  <Compound structure string>
CCCCCCCCCCCCCCCCCCCCCC[C@@H](O)C(=O)N[C@@H](CO[C@H]1O[C@H](CO)[C@H](O)[C@H](O)[C@H]1O)[C@H](O)[C@H](O)CCCCCCC

>  <Class>
class 0

$$$$
>  <Compound structure string>
CCCCCCCCCCCCCCCCCCCCCCCC(=O)N[C@@H](CO[C@H]1O[C@H](CO)[C@H](O)[C@H](O)[C@H]1O)[C@H](O)[C@H](O)CCCCCCCCCCCCC

>  <Class>
class 0

$$$$
>  <Compound structure string>
CCCCCCCCCCCCCCCCCCCCCCCC[C@@H](O)C(=O)N[C@@H](CO[C@H]1O[C@H](CO)[C@H](O)[C@H](O)[C@H]1O)[C@H](O)[C@H](O)CCCCCCCCCCCCCCC

>  <Class>
class 0

$$$$
>  <Compound structure string>
CCCCCCCCCCCCCCCCCCCCCCCCCCCC(=O)N[C@@H](CO[C@H]1O[C@H](CO)[C@H](O)[C@H](O)[C@H]1O)[C@H](O)[C@H](O)CCCCCCCCCCCCC

>  <Class>
class 0

$$$$
>  <Compound structure string>
CCCCCCCCCCCCCCCCCCCCCCCCCC(=O)N[C@@H](CO[C@H]1O[C@H](CO)[C@H](O)[C@H](O)[C@H]1O)[C@H](O)[C@H](O)CCCCCCCCCCCCC

>  <Class>
class 1

$$$$
>  <Compound structure string>
CCCCCCCCCCCCCCCCCCCCCCCC[C@@H](O)C(=O)N[C@@H](CO[C@H]1O[C@H](CO)[C@H](O)[C@H](O)[C@H]1O)[C@H](O)[C@H](O)CCCCCCCCCCCCCCCC

>  <Class>
class 0

$$$$

Check if Number of Surviving Mice falls below 7 mice for "CCCCCCCCCCCCCCC[C@@H](O)[C@H](CO[C@H]1O[C@H](CO)[C@H](O)[C@H](O)[C@H]1O)NC(C)=O" .
class 1

Please state whether Number of Surviving Mice is below 7 mice for "CCCCCCCCCCCCCCC[C@@H](O)[C@H](CO[C@H]1O[C@H](CO)[C@H](O)[C@H](O)[C@H]1O)NC(=O)CCCCCCCCCCCCC"
class 0

Confirm or reject: Number of Surviving Mice of "CCCCCCCCCCCCCCCCCCCC(=O)N[C@@H](CO[C@H]1O[C@H](CO)[C@H](O)[C@H](O)[C@H]1O)[C@H](O)CCCCCCCCCCCCCCC" lies strictly below 7 mice
class 0

* * *

Number of Surviving Mice by entry:
experiment: Life-span-increasing effect on irradiation of a lethal dose of radiation; assay type: in vivo, mouse (BDF1); conditions: day 20; 10 mice/group; 9 Gy X-ray; 0.1 mg/kg i.v. days 0, 4, 8; controls per series 4, 5, 1, 2, 3, 0
Numbers only here, please. The scale is mice.

Example cases with answers are listed next.
>  <Compound>
CCCCCCCCCCCCCCCCCCCCCC(=O)N[C@@H](CO[C@H]1O[C@H](CO)[C@H](O)[C@H](O)[C@H]1O)[C@H](O)CCCCCCCCCCCCCCC [Compound 2]

>  <Number of Surviving Mice [mice]>
9

$$$$
>  <Compound>
CCCCCCCCCCCCCCCCCCCCCCCC(=O)N[C@@H](CO[C@H]1O[C@H](CO)[C@H](O)[C@H](O)[C@H]1O)[C@H](O)CCCCCCCCCCC [Compound 9]

>  <Number of Surviving Mice [mice]>
6

$$$$
>  <Compound>
CCCCCCCCCCCCCCCCCCCCCCCC(=O)N[C@@H](CO[C@H]1O[C@H](CO)[C@H](O)[C@H](O)[C@H]1O)[C@H](O)[C@H](O)CCCCCCCCCCCCCC [Compound 16]

>  <Number of Surviving Mice [mice]>
6

$$$$

In one line, give reported Number of Surviving Mice of the entry CCCCCCCCCCCCCCC[C@@H](O)[C@H](CO[C@H]1O[C@H](CO)[C@H](O)[C@H](O)[C@H]1O)NC(=O)CCCCCCCCC [Compound 6] .
2

Fill in reported Number of Surviving Mice for this entry: CCCCCCCCCCCCCCCCCCCCCC[C@H](O)C(=O)N[C@@H](CO[C@H]1O[C@H](CO)[C@H](O)[C@H](O)[C@H]1O)[C@H](O)[C@H](O)CCCCCCCCCCCCC [Compound 28]
10

Look up and report measured Number of Surviving Mice for this entry: CCCCCCCCCCCCCCC[C@@H](O)[C@H](CO[C@H]1O[C@H](CO)[C@H](O)[C@H](O)[C@H]1O)NC(=O)CCCCCCC [Compound 7]
6
